Source listed as paper PMC6792352.

// values below are reported CC50 at 24 h
Assay: in vitro
Settings: rat, gh3-tre-luc cells, AC50 (uM) modified / 1000
Where a name gives a salt, the structure may show the parent alone.
REPORTED PROPERTY: CC50 at 24 h

{"columns": ["COMPOUND", "RESULT"],
 "data": [
  ["O=C(O)c1ccc(O)c(O)c1 [3,4-Dihydroxybenzoic acid]", "> 90 µM"],
  ["CC(C)COC(=O)c1ccccc1O [Isobutyl salicylate]", "> 90 µM"],
  ["CCCCOc1ccc(N)cc1", "> 90 µM"],
  ["COc1ccc(C(=O)N2CCCC2=O)cc1", "> 50 µM"],
  ["CC#N", "> 90 µM"],
  ["FC(F)(F)C(F)(F)C(F)(F)C(F)(F)C(F)(F)F", "> 50 µM"],
  ["CCCCCCCCCCCCCOS(=O)(=O)O [Sodium tridecyl sulfate]", "> 90 µM"],
  ["OC(CN1CCC(Cc2ccc(F)cc2)CC1)c1ccc(Cl)cc1 (centres unmarked)", "> 50 µM"],
  ["C=C(C)[C@@H]1CCC2=CCC[C@@H](C)[C@]2(C)C1", "> 90 µM"],
  ["CCCC(=O)OCc1ccccc1 [Benzyl butyrate]", "> 90 µM"],
  ["c1ccc2cc3c4ccccc4c4ccccc4c3cc2c1 [Dibenz[a,c]anthracene]", "> 90 µM"]
]}

----------
Test system: GH3-TRE-Luc cell line
Conditions: read-out: AC50 (uM) modified / 1000; Tox21_110001=Tox21_303656; viability, 1 nM T3 present, 24 h

{"columns": ["COMPOUND", "ASSAY TARGET", "CC50, µM"],
 "data": [
  ["C[C@]12CC[C@@H]3c4ccc(O)cc4C[C@@H](CCCCCCCCC[S+]([O-])CCCC(F)(F)C(F)(F)F)[C@H]3[C@@H]1CC[C@@H]2O (stereo partly shown) [Fulvestrant]", "GH3-TRE-Luc cell line", 2.26]
]}

----------
Experiment: in vitro
Details: rat, gh3-tre-luc cells, AC50 (uM) modified / 1000, Tox21_110001=Tox21_300067; viability, 1 nM T3 present, 24 h
REPORTED PROPERTY: CC50 at 24 h (µM)

{"columns": ["COMPOUND", "NUMERIC RESULT"],
 "data": [
  ["Clc1ccc(C(c2ccc(Cl)cc2)C(Cl)(Cl)Cl)cc1 [p,p'-DDT]", 28.7]
]}

----------
Assay: in vitro
Conditions: rat, gh3-tre-luc cells, AC50 (uM) modified / 1000, Tox21_110001=Tox21_201546; viability, 1 nM T3 present, 24 h
REPORTED PROPERTY: CC50 at 24 h

{"columns": ["COMPOUND", "RESULT"],
 "data": [
  ["Cc1ccc(OP(=O)(Oc2ccc(C)cc2)Oc2ccc(C)cc2)cc1 [Tricresyl phosphate]", "> 90 µM"]
]}

----------
Test: in vitro
Conditions: rat, gh3-tre-luc cells, AC50 (uM) modified / 1000, Tox21_110001=Tox21_400042; viability, 1 nM T3 present, 24 h

{"columns": ["COMPOUND", "CC50 at 24 h"],
 "data": [
  ["OCCCBr [3-Bromo-1-propanol]", "> 90 µM"]
]}

----------
Test system: GH3-TRE-Luc cell line
Conditions: read-out: AC50 (uM) modified / 1000; Tox21_110001=Tox21_113599; viability, 1 nM T3 present, 24 h
Structures can show the parent of a compound that is named as a salt.

{"columns": ["MOLECULE", "CC50 / µM"],
 "data": [
  ["Cc1c(N)nc([C@H](CC(N)=O)NC[C@H](N)C(N)=O)nc1C(=O)N[C@H](C(=O)N[C@H](C)[C@@H](O)[C@H](C)C(=O)N[C@H](C(=O)NCCc1nc(-c2nc(C(=O)NCCC[S+](C)C)cs2)cs1)[C@@H](C)O)[C@@H](O[C@@H]1O[C@@H](CO)[C@@H](O)[C@H](O)[C@@H]1O[C@H]1O[C@H](CO)[C@@H](O)[C@H](OC(N)=O)[C@@H]1O)c1c[nH]cn1 [Bleomycin sulfate]", 1.85]
]}

----------
Assay: in vitro
Details: rat, gh3-tre-luc cells, AC50 (uM) modified / 1000
REPORTED PROPERTY: CC50 at 24 h

{"columns": ["MOLECULE", "REPORTED PROPERTY", "RESULT"],
 "data": [
  ["NNc1nnc(NN)c2ccccc12 [Dihydralazine]", "CC50 at 24 h", "> 50 µM"],
  ["CN1CCCC(CN2c3ccccc3Sc3ccccc32)C1 (centres unmarked)", "CC50 at 24 h", "16.4 µM"],
  ["O=NN1CCCCCC1", "CC50 at 24 h", "> 90 µM"],
  ["CCCCCCC#CC(=O)OC [Methyl 2-nonynoate]", "CC50 at 24 h", "> 90 µM"],
  ["FC(F)(F)C(F)(F)C(F)(F)C(F)(F)CCI", "CC50 at 24 h", "> 40 µM"],
  ["CCCCCC/C=C/C=O [(E)-2-Nonenal]", "CC50 at 24 h", "> 90 µM"],
  ["CC(C)[C@@H]1CC[C@@H](C)C[C@H]1OC(=O)c1ccccc1O [Menthyl salicylate]", "CC50 at 24 h", "> 50 µM"],
  ["CCCCCCCC1CCCC1=O (centres unmarked)", "CC50 at 24 h", "> 90 µM"],
  ["OC1CCCCCCCCCCC1", "CC50 at 24 h", "> 90 µM"],
  ["CCC1OCC(COc2ccc(Oc3ccccc3)cc2)O1 (centres unmarked)", "CC50 at 24 h", "> 90 µM"],
  ["O=C1CCCN1C1CCCCC1", "CC50 at 24 h", "> 90 µM"]
]}

----------
Experiment: in vitro
Conditions: rat, gh3-tre-luc cells, AC50 (uM) modified / 1000
Structures can show the parent of a compound that is named as a salt.
REPORTED PROPERTY: CC50 at 24 h

{"columns": ["COMPOUND", "RESULT"],
 "data": [
  ["Cc1oc(=O)oc1CN1CCN(c2cc3c(cc2F)c(=O)c(C(=O)O)c2n3C(C)S2)CC1 (stereo not shown) [Prulifloxacin]", "> 50 µM"],
  ["CC(C)NCC(O)COc1cccc2[nH]ccc12 (stereo not shown) [Pindolol]", "> 50 µM"],
  ["ClC1C(Cl)C(Cl)C(Cl)C(Cl)C1Cl (stereo not drawn) [alpha-1,2,3,4,5,6-Hexachlorocyclohexane]", "> 90 µM"],
  ["O=Cc1ccc(CO)o1 [5-(Hydroxymethyl)-2-furfural]", "> 90 µM"],
  ["CCCCCCOC(=O)c1ccc(O)cc1 [Hexylparaben]", "56.8 µM"],
  ["Nc1ncnc2nc[nH]c12 [Adenine]", "> 90 µM"],
  ["CC(C)(C)N(NC(=O)c1ccc(Cl)cc1)C(=O)c1ccccc1 [Halofenozide]", "4.99 µM"],
  ["OCCCCC(O)CO (stereo not shown) [1,2,6-Hexanetriol]", "> 90 µM"],
  ["COC(=O)C(Br)CBr (stereo not shown) [Methyl 2,3-dibromopropionate]", "> 90 µM"],
  ["COc1ccc(C(=O)NCc2ccc(OCCN(C)C)cc2)cc1OC [Itopride hydrochloride]", "> 50 µM"]
]}

----------
Assay: in vitro
Conditions: rat, gh3-tre-luc cells, AC50 (uM) modified / 1000
Catalogue of CC50 at 24 h values
REPORTED PROPERTY: CC50 at 24 h

{"columns": ["MOLECULE", "RESULT"],
 "data": [
  ["CC(O)(c1ccc(Cl)cc1)c1ccc(Cl)cc1", "76.2 µM"],
  ["C=CC(=O)OC(C)(C)C [tert-Butyl acrylate]", "> 90 µM"],
  ["CC(=O)/C=C/C1C(C)=CCCC1(C)C (stereo not drawn)", "> 90 µM"],
  ["O=S(=O)(Cl)c1ccccc1 [Benzenesulfonyl chloride]", "> 90 µM"],
  ["O=c1cccccc1O", "22.1 µM"],
  ["O=S(=O)(O)C(F)(F)F", "> 90 µM"]
]}

----------
Assay: in vitro
Details: rat, gh3-tre-luc cells, AC50 (uM) modified / 1000
Counter-ions that a name gives are not always drawn.

{"columns": ["COMPOUND", "CC50 at 24 h"],
 "data": [
  ["O=C=NC1CCC(CC2CCC(N=C=O)CC2)CC1 (centres unmarked)", "> 90 µM"],
  ["COc1cc(C(=O)N2CCCCCCC2)cc(OC)c1OC", "> 50 µM"],
  ["NC(=O)N1c2ccccc2CC(=O)c2ccccc21 [Oxcarbazepine]", "14.5 µM"],
  ["CC1(C)[C@H]2CC[C@]1(C)C(=O)C2=O [(+)Camphorquinone]", "> 90 µM"],
  ["CN1C(=O)c2ccccc2C1=O [N-Methylphthalimide]", "> 90 µM"],
  ["C/C=C/C(=O)Oc1ccccc1[N+](=O)[O-]", "14.3 µM"],
  ["O=c1[nH][nH]c(=O)c2cc([N+](=O)[O-])ccc12 [6-Nitrophthalhydrazide]", "> 90 µM"],
  ["O=C1OC(CN2CCOCC2)CN1/N=C/c1ccc([N+](=O)[O-])o1 (centres unmarked) [Furaltadone hydrochloride]", "> 20 µM"],
  ["OCCCc1ccccc1", "> 50 µM"],
  ["O=C(O)CCCCCCCCC(=O)O", "> 90 µM"],
  ["Nc1cccc(O)c1", "> 90 µM"],
  ["CCCCC(O)(Cn1cncn1)c1ccc(Cl)cc1Cl (centres unmarked)", "54.6 µM"],
  ["Cc1nc2n(c(=O)c1CCN1CCC(c3noc4cc(F)ccc34)CC1)CCCC2O (centres unmarked)", "> 50 µM"],
  ["CSCCC=O", "> 100 µM"],
  ["Nc1ccc2c(O)cc(S(=O)(=O)O)cc2c1", "89.3 µM"],
  ["CC[C@H](CC[C@@H](C)[C@H]1CC[C@H]2[C@@H]3CC=C4C[C@@H](O)CC[C@]4(C)[C@H]3CC[C@]12C)C(C)C", "> 50 µM"],
  ["O=C(NC(=O)c1c(F)cccc1F)Nc1ccc(Cl)cc1", "> 90 µM"],
  ["Cc1ccccc1NC(=N)Nc1ccccc1C", "> 90 µM"],
  ["O=S(=O)(O)c1cc(S(=O)(=O)O)c2c(N=Nc3ccccc3)c(O)ccc2c1", "46.4 µM"],
  ["O=C(NC(=O)c1ccccc1Cl)Nc1ccc(OC(F)(F)F)cc1", "> 90 µM"]
]}
